Origin of values: patent US10420845B2

tested on: U-87 human primary glioblastoma cell; assay: tumor cell-growth inhibition assay, U-87 cells; assay type: cell-based; settings: U-87 MG, light or radiation study, prodrug before irradiation with UV light
experimental-endpoint: IC50 (nM)
State the answer as a number, implicitly in nM.

Given item CCC1(O)C(=O)OCc2c1cc1n(c2=O)Cc2c-1nc1ccccc1c2C(F)(F)CCCC1(C)OCC(c2cc(OC)c(OC)cc2[N+](=O)[O-])O1 (stereo not shown) [Compound 6] , the value recorded as its IC50 is 350

----------
System: U-87 human primary glioblastoma cell
Test: tumor cell-growth inhibition assay, U-87 cells
Type: cell-based
Conditions: U-87 MG, cell line U-87
Method: In order to find out whether the new derivatives retain their potency, the cytotoxicity of the CPT-, TMZ- and bosutinib-ketone analogues was evaluated in comparison to that of the parent drugs. To determine the usefulness of the drug analogues produced harboring a ketone for controlled release and bioconjugation. […] The cytotoxicity of prodrug 6 was then evaluated in a standard cell-growth inhibition assay before and after irradiation with UV light (FIG. 5B). […]
experimental-endpoint: pIC50
Scale for pIC50: -log10 of concentration given in mol/L; no unit attached.

>  <compound>
CCC1(O)C(=O)OCc2c1cc1n(c2=O)Cc2c-1nc1ccccc1c2C(F)(F)CCCC(C)=O (centres unmarked)

>  <system-tested>
U-87 human primary glioblastoma cell

>  <experimental-endpoint>
pIC50

>  <value-measured>
8.00

$$$$

Please turn your attention to the following entry.
Given item CC[C@@]1(O)C(=O)OCc2c1cc1n(c2=O)Cc2cc3ccccc3nc2-1 [CPT, camptothecin, reference compound] , the value recorded as its pIC50 is 8.15
